This section presents molecules with their documented Activity values.
- Tested on: 786-0
- assay-summary: Growth inhibition of human 786-0 cells assessed tumor cell growth at 10^-5 M
- Format: functional
- Design: scale not given: the % may be the effect or the level left
Value expressed in %; do not type the unit.

Examples from the recorded data:
O=C1/C(=C\c2cn(C(=O)c3ccc(Cl)cc3)c3ccccc23)c2ccccc2N1C(=O)c1ccc(Cl)cc1	93.7
O=C1Nc2ccccc2/C1=C/c1cn(C(=O)c2c(Cl)cccc2Cl)c2ccccc12	57
O=C1/C(=C\c2ccccn2)c2ccccc2N1c1c(Cl)cccc1Cl	-81.44

Ask: Using the record for O=C1/C(=C\c2cn(Cc3ccccc3)c3ccccc23)c2ccccc2N1Cc1ccccc1 , state its measured Activity.
Result: 99.1

Ask: Report Activity, nothing else, for this molecule: O=C1Nc2ccccc2/C1=C/c1cn(C(=O)c2ccc(Cl)cc2)c2ccccc12
Result: 111.4

Ask: Please list Activity recorded for the molecule CC1=NN(c2cccc(Cl)c2)C(=O)/C1=C\c1ccccn1
Result: 113.47

Ask: Find the measured Activity of O=C1/C(=C\c2coc3ccccc3c2=O)c2ccccc2N1c1c(Cl)cccc1Cl and report it.
Result: 27.05

Ask: Supply reported Activity belonging to this molecule: Cc1ccc(S(=O)(=O)n2cc(/C=C3\C(=O)N(c4c(Cl)cccc4Cl)c4ccccc43)c3ccccc32)cc1
Result: 92.1

Ask: Query Activity for O=C1C(=Cc2cn(Cc3ccccc3)c3ccccc23)C(=O)N(Cc2ccccc2)C(=O)N1Cc1ccccc1
Result: 93.2

----------
- System: U-251
- assay-summary: Growth inhibition of human U251 cells assessed tumor cell growth at 10^-5 M
- Assay type: functional
- Parameters: scale not given: the % may be the effect or the level left
Label y when Activity is at or above 90%; anything below gets n.

Use these answered entries as a reference point.
CC1=NN(c2cccc(Cl)c2)C(=O)/C1=C\c1cn(C(=O)c2c(Cl)cccc2Cl)c2ccccc12	y
CC1=NN(c2cccc(Cl)c2)C(=O)/C1=C\c1coc2ccccc2c1=O	y
O=C1C(=Cc2cn(Cc3ccccc3)c3ccccc23)C(=O)N(Cc2ccccc2)C(=O)N1Cc1ccccc1	n

Ask: # bool: Activity of O=C1/C(=C\c2cn(C(=O)c3c(Cl)cccc3Cl)c3ccccc23)c2ccccc2N1C(=O)c1c(Cl)cccc1Cl >= 90%
Result: n

Ask: Tell me whether Activity is at least 90% here: Cc1ccc(S(=O)(=O)N2C(=O)/C(=C\c3cn(S(=O)(=O)c4ccc(C)cc4)c4ccccc34)c3ccccc32)cc1
Result: n

Ask: Form field: Activity at least 90%? Entry: O=C1/C(=C\c2coc3ccccc3c2=O)c2ccccc2N1c1c(Cl)cccc1Cl
Result: n

Ask: Check the entry Cc1ccc(S(=O)(=O)n2cc(/C=C3\C(=O)Nc4ccccc43)c3ccccc32)cc1 : does Activity equal or exceed 90%?
Result: n

Ask: Please indicate if the recorded Activity for CC1=NN(c2cccc(Cl)c2)C(=O)/C1=C\c1cn(C(=O)c2ccc(Cl)cc2)c2ccccc12 meets or exceeds 90%.
Result: y

----------
Entries and their measured Activity follow.
- Tested on: SW-620
- assay-summary: Growth inhibition of human SW620 cells assessed tumor cell growth at 10^-5 M
- Format: functional
- Design: scale not given: the % may be the effect or the level left
Output spec: scalar in %, unitless text.

O=C1/C(=C\c2cn(Cc3ccccc3)c3ccccc23)c2ccccc2N1Cc1ccccc1	97.1

Ask: Check the records and state Activity for CC1=NN(c2cccc(Cl)c2)C(=O)/C1=C\c1cn(C(=O)c2c(Cl)cccc2Cl)c2ccccc12
Result: 96.65

Ask: Provide Activity value for the following molecule: O=C1/C(=C\c2cn(C(=O)c3ccc(Cl)cc3)c3ccccc23)c2ccccc2N1C(=O)c1ccc(Cl)cc1
Result: 93.1

Ask: State, in one line, measured Activity of O=C1/C(=C\c2cn(C(=O)c3c(Cl)cccc3Cl)c3ccccc23)c2ccccc2N1C(=O)c1c(Cl)cccc1Cl
Result: 117

----------
- Tested on: PC-3
- assay-summary: Growth inhibition of human PC3 cells assessed tumor cell growth at 10^-5 M
- Type: functional
- Set-up: scale not given: the % may be the effect or the level left
Listing of recorded Activity by entry.
Express the result in % but write the number alone.

Ask: Look up and state reported Activity for O=C1/C(=C\c2cn(C(=O)c3c(Cl)cccc3Cl)c3ccccc23)c2ccccc2N1C(=O)c1c(Cl)cccc1Cl
Result: 73.1

----------
- System: SF-539
- assay-summary: Growth inhibition of human SF539 cells
- Assay type: functional
- condition-info: read-out: LC50 (the source's name)
Recorded CC50, one value per entry.

Here is how some compounds turned out for CC50.
O=C1Nc2ccccc2/C1=C/c1cn(C(=O)c2c(Cl)cccc2Cl)c2ccccc12	66.1 µM
O=C1/C(=C\c2ccccn2)c2ccccc2N1c1c(Cl)cccc1Cl	> 100 µM

Ask: Give the value of CC50 reported for the following: CC1=NN(c2cccc(Cl)c2)C(=O)/C1=C\c1c(O)ccc2ccccc12
Result: > 100 µM

Ask: Tell us which CC50 value is on record for O=C1/C(=C\c2coc3ccccc3c2=O)c2ccccc2N1c1c(Cl)cccc1Cl
Result: > 100 µM

Ask: Give me measured CC50, please, for this compound: CC1=NN(c2cccc(Cl)c2)C(=O)/C1=C\C=C\c1ccccc1
Result: > 100 µM

----------
- Test system: SW-620
- assay-summary: Growth inhibition of human SW620 cells assessed tumor cell growth at 10^-5 M
- Assay type: functional
- Set-up: scale not given: the % may be the effect or the level left
Examples of compounds with documented Activity follow.
Note: unit % is implicit; provide only the numeric part.

Ask: Lab note: record Activity of CC1=NN(c2cccc(Cl)c2)C(=O)/C1=C\c1cn(S(=O)(=O)c2ccc(C)cc2)c2ccccc12 tested on SW-620.
Result: 98.36

Ask: Enter recorded Activity with SW-620 for Cc1ccc(S(=O)(=O)N2C(=O)/C(=C\c3cn(S(=O)(=O)c4ccc(C)cc4)c4ccccc34)c3ccccc32)cc1 here.
Result: 94.8

Ask: Look up and report measured Activity (SW-620) for the following compound: O=C1/C(=C\c2ccccn2)c2ccccc2N1c1c(Cl)cccc1Cl
Result: -56.9

----------
- Tested on: OVCAR-8
- assay-summary: Growth inhibition of human OVCAR8 cells assessed tumor cell growth at 10^-5 M
- Type: functional
- Set-up: scale not given: the % may be the effect or the level left
Activity less than 90% is label 1; Activity greater than or equal to 90% is label 0.

Recorded results for 5 compounds are shown here.
CC1=NN(c2cccc(Cl)c2)C(=O)/C1=C\c1ccccn1	label 0
CC1=NN(c2cccc(Cl)c2)C(=O)/C1=C\c1coc2ccccc2c1=O	label 0
O=C1Nc2ccccc2/C1=C/c1cn(C(=O)c2c(Cl)cccc2Cl)c2ccccc12	label 1
O=C1/C(=C\c2coc3ccccc3c2=O)c2ccccc2N1c1c(Cl)cccc1Cl	label 1
CC1=NN(c2cccc(Cl)c2)C(=O)/C1=C\c1cn(S(=O)(=O)c2ccc(C)cc2)c2ccccc12	label 0

Ask: In plain terms, does O=C1/C(=C\c2ccccn2)c2ccccc2N1c1c(Cl)cccc1Cl come in under 90% for Activity?
Result: label 1

Ask: Hello, I'm reviewing records and need to know if Activity of C#CCN1C(=O)/C(=C\c2cn(CC#C)c3ccccc23)c2ccccc21 is below 90%. Could you check?
Result: label 0

----------
# maps each entry to its Activity
- Test system: MDA-MB-435
- assay-summary: Growth inhibition of human MDA-MB-435 cells assessed tumor cell growth at 10^-5 M
- Assay type: functional
- Parameters: scale not given: the % may be the effect or the level left
Express your answer in %, writing the number without its unit.

Ask: Find the measured Activity of CC1=NN(c2cccc(Cl)c2)C(=O)/C1=C\c1c[nH]c2ccccc12 and report it.
Result: 108.89

Ask: Provide Activity value for the following compound: CN1C(=O)C(=Cc2coc3ccccc3c2=O)C(=O)N(C)C1=O
Result: 104.58

Ask: // Input: CC1=NN(c2cccc(Cl)c2)C(=O)/C1=C\c1cn(Cc2ccccc2)c2ccccc12 . Output its Activity only.
Result: 106.21

Ask: Read off the recorded Activity for C#CCN1C(=O)/C(=C\c2cn(CC#C)c3ccccc23)c2ccccc21
Result: 114

Ask: Please indicate Activity recorded for CC1=NN(c2cccc(Cl)c2)C(=O)/C1=C\C=C\c1ccccc1
Result: 13.63

Ask: Item CC1=NN(c2cccc(Cl)c2)C(=O)/C1=C\c1cn(C(=O)c2ccc(Cl)cc2)c2ccccc12 : provide Activity
Result: 120.68

----------
- System: MDA-MB-231
- assay-summary: Growth inhibition of human MDA-MB-231 cells assessed tumor cell growth at 10^-5 M
- Type: functional
- Design: scale not given: the % may be the effect or the level left
measurement-type: Activity
Could you kindly put the unit after your number?

The following compounds have reported results that may help.
O=C1Nc2ccccc2/C1=C/c1cn(C(=O)c2c(Cl)cccc2Cl)c2ccccc12	55%
CC1=NN(c2cccc(Cl)c2)C(=O)/C1=C\c1ccccn1	106.88%

Ask: Note Activity for the compound shown: CC1=NN(c2cccc(Cl)c2)C(=O)/C1=C\C=C\c1ccccc1
Result: 13.67%

Ask: Look up and state reported Activity for C#CCN1C(=O)/C(=C\c2cn(CC#C)c3ccccc23)c2ccccc21
Result: 82.7%

Ask: Give recorded Activity. O=C1/C(=C\c2cn(C(=O)c3c(Cl)cccc3Cl)c3ccccc23)c2ccccc2N1C(=O)c1c(Cl)cccc1Cl
Result: 74.3%

Ask: Note down Activity recorded for O=C1/C(=C\c2cn(C(=O)c3ccccc3)c3ccccc23)c2ccccc2N1c1c(Cl)cccc1Cl
Result: 103.3%

Ask: Consider the compound Cc1ccc(S(=O)(=O)N2C(=O)/C(=C\c3cn(S(=O)(=O)c4ccc(C)cc4)c4ccccc34)c3ccccc32)cc1 and give its recorded Activity.
Result: 84.2%

Ask: Kindly indicate its recorded Activity. Item: Cc1ccc(S(=O)(=O)n2cc(/C=C3\C(=O)N(c4c(Cl)cccc4Cl)c4ccccc43)c3ccccc32)cc1
Result: 89.3%

Ask: Fill in reported Activity for this entry: O=C1Nc2ccccc2/C1=C/c1cn(C(=O)c2ccc(Cl)cc2)c2ccccc12
Result: 77.7%
